Below is a list of entries, each paired with its recorded R (binding distance) value.
molecular target: human serum albumin (HSA) (Homo sapiens, UniProt P02768); test: Fluorescence emission spectrum (quenching) of HSA with carbamate pesticides; assay type: binding; conditions: 310 K, Förster energy transfer
Sequence (P02768 25-609): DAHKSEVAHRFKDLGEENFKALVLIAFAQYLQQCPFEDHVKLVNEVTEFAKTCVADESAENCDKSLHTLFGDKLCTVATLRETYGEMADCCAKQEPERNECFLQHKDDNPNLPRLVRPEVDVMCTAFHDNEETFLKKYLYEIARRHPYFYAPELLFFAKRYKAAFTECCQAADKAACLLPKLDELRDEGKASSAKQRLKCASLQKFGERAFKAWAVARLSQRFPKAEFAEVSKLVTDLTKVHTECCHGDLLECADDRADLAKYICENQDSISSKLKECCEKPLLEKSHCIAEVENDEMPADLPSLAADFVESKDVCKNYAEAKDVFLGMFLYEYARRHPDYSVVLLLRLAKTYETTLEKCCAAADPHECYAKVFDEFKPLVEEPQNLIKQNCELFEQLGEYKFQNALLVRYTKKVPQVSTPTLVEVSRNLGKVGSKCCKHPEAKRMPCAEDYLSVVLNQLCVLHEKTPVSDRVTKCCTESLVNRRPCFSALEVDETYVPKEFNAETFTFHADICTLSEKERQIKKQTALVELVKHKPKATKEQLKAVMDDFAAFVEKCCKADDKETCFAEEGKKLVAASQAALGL
Your answer should be a plain number; it is taken to be in nm.

Observe how each entry below is paired with its result.
CNC(=O)O/N=C(\C[S+](C)[O-])C(C)(C)C (stereo not shown) [Thiofanox-sulfoxide]: 1.702
CNC(=O)Oc1cccc2c1OC(C)(C)C2 [Carbofuran, carbofuran]: 1.938

So what's the measured R (binding distance) for this one? CNC(=O)O/N=C(\CS(C)(=O)=O)C(C)(C)C [Thiofanox-sulfone, thiofanox sulfone]
2.907

So what's the measured R (binding distance) for this one? CNC(=O)ON=C(C)SC [Methomyl, methomyl]
2.145

So what's the measured R (binding distance) for this one? CCSCc1ccccc1OC(=O)NC [Ethiofencarb, ethiofencarb]
2.363

So what's the measured R (binding distance) for this one? CNC(=O)ON=C(CSC)C(C)(C)C [Thiofanox, thiofanox]
1.883

So what's the measured R (binding distance) for this one? CNC(=O)O/N=C(\SC)C(=O)N(C)C [Oxamyl, oxamyl]
2.564

So what's the measured R (binding distance) for this one? CNC(=O)Oc1ccccc1C(C)C [Isoprocarb, isoprocarb]
2.338

So what's the measured R (binding distance) for this one? CNC(=O)Oc1cc(C)cc(C(C)C)c1 [Promecarb, promecarb]
2.316

So what's the measured R (binding distance) for this one? CNC(=O)Oc1ccccc1OC(C)C [Propoxur, propoxur]
3.138

###

target: human serum albumin (HSA) (Homo sapiens, UniProt P02768); assay: Fluorescence emission spectrum (quenching) of HSA with carbamate pesticides; assay type: binding; details: 37°, modelling table
Below is a list of entries, each paired with its recorded ΔG(37°) value.

Observe how each entry below is paired with its result.
CNC(=O)O/N=C/C(C)(C)SC: −24.42
CNC(=O)Oc1ccc(N(C)C)c(C)c1: −18.36
CNC(=O)Oc1ccccc1C(C)C: −18.11
CCSCc1ccccc1OC(=O)NC: −17.7

So what's the measured ΔG(37°) for this one? CNC(=O)ON=C(CSC)C(C)(C)C
−20.27

So what's the measured ΔG(37°) for this one? CNC(=O)O/N=C(\C)C(C)S(C)(=O)=O (stereo not shown)
−20.24

So what's the measured ΔG(37°) for this one? CNC(=O)Oc1cc(C)cc(C)c1 [XMC, 3,5-xylyl methylcarbamate]
−22.81

###

target: human serum albumin (HSA) (Homo sapiens); assay: Fluorescence emission spectrum (quenching) of HSA with carbamate pesticides; format: binding; conditions: 310 K, pH 7.4
Below is a list of entries, each paired with its recorded Ksv value.

Observe how each entry below is paired with its result.
CNC(=O)O/N=C(\SC)C(=O)N(C)C: 6.605 ± 0.058 10^4 M^−1
CNC(=O)Oc1cccc(C)c1: 4.442 ± 0.118 10^4 M^−1
CCSCc1ccccc1OC(=O)NC: 4.135 ± 0.166 10^4 M^−1
CNC(=O)Oc1cc(C)cc(C)c1 [XMC, 3,5-xylyl methylcarbamate]: 4.830 ± 0.108 10^4 M^−1

So what's the measured Ksv for this one? CNC(=O)O/N=C(\CS(C)(=O)=O)C(C)(C)C
5.574 ± 0.138 10^4 M^−1

###

target: human serum albumin (HSA) (Homo sapiens); experiment: Fluorescence emission spectrum (quenching) of HSA with carbamate pesticides; type: binding; conditions: modelling table
Below is a list of entries, each paired with its recorded Number of binding sites/n value.
Answer with a number only.

Observe how each entry below is paired with its result.
CNC(=O)Oc1cccc(C)c1 [Metolcarb, metolcarb]: 0.6156
CNC(=O)O/N=C(\C)C(C)S(C)(=O)=O (centres unmarked) [Butoxycarboxim, butoxycarboxim]: 0.725
CCC(C)c1ccccc1OC(=O)NC (centres unmarked) [Fenobucarb, fenobucarb]: 0.5672
CNC(=O)ON=C(C)SC [Methomyl, methomyl]: 0.7657

# ---- query compound ----
human serum albumin (HSA) (Homo sapiens) / Number of binding sites/n / CNC(=O)O/N=C/C(C)(C)S(C)(=O)=O [Aldicarb-sulfone, aldicarb sulfone] : value?
0.6544

###

Below is a list of entries, each paired with its recorded Number of binding sites/n value.
molecular target: human serum albumin (HSA) (Homo sapiens); experiment: Fluorescence emission spectrum (quenching) of HSA with carbamate pesticides; assay type: binding; settings: modelling table
Answer with a number only.

human serum albumin (HSA) (Homo sapiens) / Number of binding sites/n / CNC(=O)O/N=C(\SC)C(=O)N(C)C : value?
0.8074

human serum albumin (HSA) (Homo sapiens) / Number of binding sites/n / CNC(=O)Oc1ccccc1C(C)C : value?
0.7116

human serum albumin (HSA) (Homo sapiens) / Number of binding sites/n / CNC(=O)ON=C(CSC)C(C)(C)C : value?
0.7299

human serum albumin (HSA) (Homo sapiens) / Number of binding sites/n / CNC(=O)Oc1ccccc1OC(C)C : value?
0.7565

human serum albumin (HSA) (Homo sapiens) / Number of binding sites/n / CNC(=O)Oc1cc(C)cc(C(C)C)c1 : value?
0.7688

human serum albumin (HSA) (Homo sapiens) / Number of binding sites/n / CNC(=O)O/N=C/C(C)(C)SC : value?
0.8508

human serum albumin (HSA) (Homo sapiens) / Number of binding sites/n / CNC(=O)Oc1cccc2c1OC(C)(C)C2 : value?
0.8616

human serum albumin (HSA) (Homo sapiens) / Number of binding sites/n / CNC(=O)Oc1cc(C)cc(C)c1 [XMC, 3,5-xylyl methylcarbamate] : value?
0.8317

human serum albumin (HSA) (Homo sapiens) / Number of binding sites/n / CCSCc1ccccc1OC(=O)NC : value?
0.6742

human serum albumin (HSA) (Homo sapiens) / Number of binding sites/n / CNC(=O)Oc1ccc(N(C)C)c(C)c1 : value?
0.6985

###

Below is a list of entries, each paired with its recorded Binding distance/r value.
biological target: human serum albumin (HSA) (Homo sapiens); assay: Fluorescence emission spectrum (quenching) of HSA with carbamate pesticides; format: binding; settings: modelling table
Answer with a number only.

Observe how each entry below is paired with its result.
CNC(=O)O/N=C(\SC)C(=O)N(C)C [Oxamyl, oxamyl]: 2.564
CNC(=O)O/N=C/C(C)(C)SC [Aldicarb, aldicarb]: 2.623
CNC(=O)Oc1cc(C)cc(C)c1 [XMC, 3,5-xylyl methylcarbamate]: 2.033

human serum albumin (HSA) (Homo sapiens) / Binding distance/r / CNC(=O)ON=C(C)SC [Methomyl, methomyl] : value?
2.145

human serum albumin (HSA) (Homo sapiens) / Binding distance/r / CNC(=O)ON=C(CSC)C(C)(C)C [Thiofanox, thiofanox] : value?
1.883

###

Below is a list of entries, each paired with its recorded Ksv value.
biological target: human serum albumin (HSA) (Homo sapiens, UniProt P02768); experiment: Fluorescence emission spectrum (quenching) of HSA with carbamate pesticides; type: binding; details: 296 K, pH 7.4

Observe how each entry below is paired with its result.
CNC(=O)Oc1cccc2c1OC(C)(C)C2 [Carbofuran, carbofuran]: 5.563 ± 0.123 10^4 M^−1
CNC(=O)O/N=C(\SC)C(=O)N(C)C [Oxamyl, oxamyl]: 5.229 ± 0.185 10^4 M^−1
CNC(=O)Oc1ccc(N(C)C)c(C)c1 [Aminocarb, aminocarb]: 3.151 ± 0.089 10^4 M^−1
CNC(=O)ON=C(CSC)C(C)(C)C [Thiofanox, thiofanox]: 3.871 ± 0.035 10^4 M^−1
CNC(=O)O/N=C(\CS(C)(=O)=O)C(C)(C)C [Thiofanox-sulfone, thiofanox sulfone]: 3.906 ± 0.043 10^4 M^−1

So what's the measured Ksv for this one? CNC(=O)O/N=C(\C)C(C)S(C)(=O)=O (centres unmarked) [Butoxycarboxim, butoxycarboxim]
2.888 ± 0.064 10^4 M^−1

So what's the measured Ksv for this one? CNC(=O)Oc1cc(C)cc(C)c1 [XMC, 3,5-xylyl methylcarbamate]
4.145 ± 0.187 10^4 M^−1

So what's the measured Ksv for this one? CNC(=O)ON=C(C)SC [Methomyl, methomyl]
3.401 ± 0.068 10^4 M^−1

###

biological target: human serum albumin (HSA) (Homo sapiens); assay: Circular dichroism spectrum, secondary structure (α-helix content) of HSA; conditions: 10:1 (Pesticide:HSA), HSA 2×10^−6 M
Below is a list of entries, each paired with its recorded α-helix contents value.
Your answer should be a plain number; it is taken to be in %.

Observe how each entry below is paired with its result.
CNC(=O)Oc1cccc(C)c1: 53.215
CNC(=O)ON=C(C)SC: 49.970
CNC(=O)Oc1ccccc1C(C)C: 49.242

human serum albumin (HSA) (Homo sapiens) / α-helix contents / CNC(=O)O/N=C(\C[S+](C)[O-])C(C)(C)C (centres unmarked) [Thiofanox-sulfoxide] : value?
48.338

human serum albumin (HSA) (Homo sapiens) / α-helix contents / CNC(=O)O/N=C(\SC)C(=O)N(C)C : value?
49.354
